This section lists EC50 readings for human CB1 receptor (hCB1) (Homo sapiens).

INSERT INTO results (smiles_entry, test_value) VALUES
  ('CNC(=O)[C@@H](NC(=O)c1nc(-c2ccc3c(c2)OCCO3)n2c1CN(C)CCC2)C(C)(C)C', '> 10 µM'),
  ('CNC(=O)[C@@H](NC(=O)c1nc(-c2cnn(S(=O)(=O)c3ccccc3)c2)n2c1CN(C)CCC2)C(C)(C)C', '> 10 µM'),
  ('CN1CCCn2c(-c3cc(Cl)ccc3F)nc(C(=O)N[C@H](C(=O)N[C@H]3CN4CCC3CC4)C(C)(C)C)c2C1', '> 10 µM'),
  ('CNC(=O)[C@@H](NC(=O)c1nc(C2CCN(S(=O)(=O)c3ccccc3)CC2)n2c1CN(C)CCC2)C(C)(C)C', '> 10 µM'),
  ('CC(C)(C)[C@H](NC(=O)c1nc(-c2ccccc2)n2c1CNCC2)C(=O)N1CCOCC1', '> 10 µM'),
  ('CNC(=O)[C@H]1CCN(C(=O)c2nc(-c3cc(Cl)c(F)cc3F)n3c2CN(C)CCC3)C1', '> 10 µM'),
  ('CN1CCCn2c(-c3cc(F)c(F)cc3F)nc(C(=O)NC(C)(C)CO)c2C1', '> 10 µM'),
  ('CN1CCCn2c(-c3cc(Cl)ccc3F)nc(C(=O)N[C@H](CN)C(C)(C)C)c2C1', '> 10 µM');

Q: EC50 of CNC(=O)[C@@H](NC(=O)c1nc(-c2ccnc(-c3ccnc(Cl)c3)c2)n2c1CN(C)CCC2)C(C)(C)C on human CB1 receptor (hCB1) (Homo sapiens)?
Result: > 10 µM

Q: EC50 of CNC(=O)[C@@H](NC(=O)c1nc(-c2cccnc2C)n2c1CN(C)CCC2)C(C)(C)C on human CB1 receptor (hCB1) (Homo sapiens)?
Result: > 10 µM

Q: EC50 of CN1CCCn2c(-c3cc(F)c(F)cc3F)nc(C(=O)NCC3CCOCC3)c2C1 on human CB1 receptor (hCB1) (Homo sapiens)?
Result: > 10 µM

Q: EC50 of CNC(=O)[C@@H](NC(=O)c1nc(C2CCN(C(=O)c3ccccc3)CC2)n2c1CN(C)CCC2)C(C)(C)C on human CB1 receptor (hCB1) (Homo sapiens)?
Result: > 10 µM

Q: EC50 of CNC(=O)[C@@H](NC(=O)c1nc(-c2cnn(CC(C)C)c2)n2c1CN(C)CCC2)C(C)(C)C on human CB1 receptor (hCB1) (Homo sapiens)?
Result: > 10 µM

Q: EC50 of CN1CCCn2c(-c3cc(Cl)ccc3F)nc(C(=O)N[C@H](CN3CCCC3=O)C(C)(C)C)c2C1 on human CB1 receptor (hCB1) (Homo sapiens)?
Result: > 10 µM

Q: EC50 of CNC(=O)[C@@H](NC(=O)c1nc(-c2ccc(=O)n(C)c2)n2c1CN(C)CCC2)C(C)(C)C on human CB1 receptor (hCB1) (Homo sapiens)?
Result: > 10 µM
